System: MDA-MB-231 breast
Assay: NCI-60 one-dose screen, 48 h (100 = growth as untreated, 0 = no growth, -100 = all killed)
Conditions: 10 µM unless noted
Procedure: Cells are grown in 96 well plates and exposed to the test compound for 48 hours. Compounds are tested at a single concentration, which is 10^-5 M for most compounds. The reported endpoint is percent growth (GI% or GIPRCNT), where numbers from 0 - 100% represent growth inhibition, and numbers from -100% - 0 represent cell death. For example, a value of 40 represents 60% growth inhibition. A value of 0 means no net growth occurred over the course of the experiment. […]
Compounds without any hit were thinned out: in the full panel of roughly 83,000, 20% have a hit.
Values of growth strictly less than 40% map to 1 (yes), and values of at least 40% map to 0 (no).

Answered examples (8):
MOLECULE | LABEL_CLASS
CC(C)(C)n1cc(-c2ccnc(NCCNS(=O)(=O)c3ccc(Cl)cc3)c2)c(-c2cccc(O)c2)n1 | 0 (no)
Cc1nc2c3c(ncn2n1)Oc1c(c(=O)[nH]c2ccccc12)C3c1ccc(Cl)cc1 (stereo not given) | 0 (no)
COc1ccc(-c2nc(/C=N/Nc3cc(C)nc4ccc(Cl)cc34)c(C)o2)cc1 | 1 (yes)
COc1ccc2[nH]c(C(=O)OCc3ccc4c(Cl)cc(Cl)c(O)c4n3)cc2c1 | 1 (yes)
CN1CCN(CCCOc2ccc3nc(Nc4ccc(Cl)c(C(F)(F)F)c4)ccc3c2)CC1 | 1 (yes)
Nc1nc(Nc2cc(Cl)cc(Cl)c2)nn1S(=O)(=O)c1ccc2ccccc2c1 | 1 (yes)
COc1c2occc2c(OC)c2c(=O)c(-c3cc(-c4ccc(F)cc4)c(C#N)c(N)n3)c(C)oc12 | 1 (yes)
CN1CCN(Cc2ccc(NC(=O)c3nc4ccc5[nH]ncc5c4c4c3CCC4)cc2C(F)(F)F)CC1 | 1 (yes)

Exam item: growth under 40%? Item: COc1ccc(-n2c(-c3ccccc3)c(-c3ccccc3)c3c(SCC(=O)N/N=C/c4ccc(Cl)cc4)ncnc32)cc1
Marked response: 0 (no)

Exam item: Please let me know if COc1cccc(-c2nc3sccn3c2-c2ccnc(NCCCNS(=O)(=O)c3ccc(C(F)(F)F)cc3)c2)c1 shows growth below 40%.
Marked response: 0 (no)

Exam item: growth under 40%? Item: N=C(N)c1ccc(-c2ccc(-c3cncc4ccccc34)s2)cc1F
Marked response: 1 (yes)

Exam item: For this molecule, is growth lower than 40%? Cc1cc(C(C)(C)C)ccc1S
Marked response: 0 (no)

Exam item: Strictly below 40%: is that where growth of CCn1c2ccccc2c2cc(NC(=O)Nc3ccc([N+](=O)[O-])cc3C)ccc21 sits?
Marked response: 1 (yes)

Exam item: Determine whether this molecule shows growth lower than 40% (ties excluded): N[C@H]1CN(C(=O)c2cc3cc(Br)c(F)c(F)c3[nH]2)C[C@@H]1O
Marked response: 0 (no)

###

Test system: NCI-H322M lung
Assay: NCI-60 one-dose screen, 48 h (100 = growth as untreated, 0 = no growth, -100 = all killed)
Settings: 10 µM unless noted
This is part of a sample that, as a whole, favours compounds with a hit. Of some 83,000 tested, about 20% had one in any assay.
Answer each item with its documented growth.
Answers are plain numbers, in %.

MOLECULE | ASSAYED_TARGET | growth / %
Cc1ccc(NS(=O)(=O)c2cc(C)ccc2C)cc1 | NCI-H322M lung | 88.7
Cc1csc(NC(c2ccc(Br)cc2)c2c(C)nc3ccccn23)n1 (stereo not drawn) | NCI-H322M lung | 84.9

Then this molecule:
Exam item: Please give measured growth of the following entry: NC(=N\N=C/c1ccc(O)cc1)/C(N)=N\N=C/c1ccc(O)cc1
Marked response: 77.5

###

System: MDA-MB-231 breast
Experiment: NCI-60 one-dose screen, 48 h (100 = growth as untreated, 0 = no growth, -100 = all killed)
Conditions: 10 µM unless noted
Description: Cells are grown in 96 well plates and exposed to the test compound for 48 hours. Compounds are tested at a single concentration, which is 10^-5 M for most compounds. The reported endpoint is percent growth (GI% or GIPRCNT), where numbers from 0 - 100% represent growth inhibition, and numbers from -100% - 0 represent cell death. For example, a value of 40 represents 60% growth inhibition. A value of 0 means no net growth occurred over the course of the experiment. […]
The panel holds about 83,000 compounds, 20% with a hit somewhere; the sample as a whole holds those more often.
Exercise: for every item that follows, state its recorded growth.
Numbers only, in %.

SMI | ENDPOINT_UNIT | growth
CCOC(=O)c1cn2c3c(cccc3c1=O)C(=O)/C(=C/c1cccc(Cl)c1Cl)C2 | % | 89.5
C=CCSc1n[nH]c(-c2cccs2)n1 | % | 121
O=C(Nc1ccncc1)C(=O)c1cn(S(=O)(=O)c2ccc(Oc3ccccc3)cc2)c2ccccc12 | % | 68.9
CCCCOc1ccc(/C=C2/SC(N3CCOCC3)=NC2=O)cc1OCC | % | 83.8

Exam item: Enter growth (test system MDA-MB-231 breast) for COc1ccc(OC)c(/C=C2\Oc3cc(OCCCN4CCCC4)ccc3C2=O)c1
Marked response: 68.8

###

Test system: EKVX NSCLC
Experiment: NCI-60 one-dose screen, 48 h (100 = growth as untreated, 0 = no growth, -100 = all killed)
Details: 10 µM unless noted
About 83,000 compounds went through this panel and 20% of them were active in at least one assay; those are over-represented in the sample as a whole.
Threshold check on growth: strictly below 90% is t; on or above 90% is f.

COMPOUND | LABEL_CLASS
CCCCCCCCCCCCCCCCNC(=O)OC(C)C | t

Exam item: Is 90% strictly greater than the compound's reported growth? compound: COc1ccc2c(c1)[nH]c(=O)c1c3cccc(F)c3cn21
Marked response: t

Exam item: In plain terms, does NC1N=C(SCC(=O)N2CCN(c3cc4c(cc3F)c(=O)c(C(=O)O)cn4C3CC3)CC2)NC(=O)/C1=C/c1ccc(Cl)cc1 (stereo unspecified) come in under 90% for growth?
Marked response: f

Exam item: Problem: For the compound CNc1ccc(Br)c2c1C(=O)c1ccccc1C2=O , is growth under 90%?
Marked response: f

Exam item: Hello, is growth of the following compound strictly smaller than 90%? CCCOC(=O)n1cccc1
Marked response: f

###

System: U251 CNS
Assay: NCI-60 one-dose screen, 48 h (100 = growth as untreated, 0 = no growth, -100 = all killed)
Conditions: 10 µM unless noted
Compounds without any hit were thinned out: in the full panel of roughly 83,000, 20% have a hit. Calls of active or inactive are those of the source. How the source made its calls: active means growth percent below 10; inactive means the rest.
REPORTED_ENDPOINT: growth

Answered cases to consult:
COMPOUND | ASSAYED_TARGET | growth
COc1cc2c(cc1O)CCN1C[C@@H](CC(C)C)[C@@H](O)C[C@@H]21 | U251 CNS | 92.1% (inactive)
COc1cccc(/C=C/C(=O)Nc2cc(OC)c3c(c2)OCO3)c1 | U251 CNS | 91.3% (inactive)
COc1cc(/C=C/C(=O)N2CCN(C(=O)/C=C/c3cc(OC)c(OC)c(OC)c3)CC2)cc(OC)c1OC | U251 CNS | 103% (inactive)
Cc1ccc(C(=O)C2=Cc3cc4ccccc4n3Cc3cnnn32)cc1 | U251 CNS | 100% (inactive)
COc1ccc(C(=O)N2NC(=O)/C(=C/c3ccc(Br)cc3)N=C2c2ccccc2)cc1 | U251 CNS | 72.9% (inactive)
CCN(CC)CCC(CNc1c2ccc(Cl)cc2nc2ccc(OC)cc12)c1ccccc1 (centres undefined) | U251 CNS | -59.1% (active)

Provide growth values for the following items, in order.
1. O=C1c2c(Cl)c(Cl)c(Cl)c(Cl)c2C(=O)C2(Cl)CC=CCC12Cl (centres undefined)
2. Cc1cc(N/N=C/c2nc(-c3ccccc3)oc2C)c2cc(Cl)ccc2n1

Marked response:
1. -30.2% (active)
2. -76.9% (active)

Give me growth for each of these compounds, listed below.
1. Brc1cccc(-c2cc(-c3ccc4c(c3)OCCCO4)[nH]n2)c1
2. N#Cc1c(-c2ccccc2)cc(-c2ccccc2)n(CC(=O)NO)c1=O
3. COc1ccc(-c2ccc(-c3ccc(-c4ccc(C(=N)N)cc4)s3)s2)cc1OC
4. C=C1CCC2C(C)(CO)C(O)CCC2(C)C1C/C=C1/C(=O)OCC1O/C=C/c1ccccc1 (centres undefined)
5. Clc1cc(Cl)c2nc(-c3ccc(-c4ccc(/C=N/NC5=NCCN5)cc4)s3)cn2c1

Marked response:
47.4% [25 µM] (inactive)
52.5% (inactive)
46.4% (inactive)
83.8% (inactive)
87.2% (inactive)

For each entry beneath this line, provide reported growth.
1. NC(=N\N=C/c1ccc(O)cc1)/C(N)=N\N=C/c1ccc(O)cc1
2. CN(C)CC(C(=O)c1ccccc1)c1ccccc1 (centres undefined)
3. COc1cc2c(c(OC)c1OC)-c1ccc(N)c(=O)cc1[C@@H](NC(C)=O)CC2

Marked response:
1: 72.3% (inactive); 2: 59.8% (inactive); 3: 18% (inactive)

Please supply growth for each of the following items, keeping them in order.
1. C=C[C@@H]1C[C@@H]2Cc3cc(F)ccc3N1O2
2. COc1ccncc1S(=O)(=O)NC(=O)Nc1ccc(Cl)c(Cl)c1
3. CC1(c2ccc(Cl)cc2)OC(=O)CC(=O)O1
4. COc1ccc(/C=C/c2c(C(C)=O)c(C)nc3ccccc23)cc1
5. CC(=O)c1cc2c(N)c(C(=O)Nc3cccc4c3OCCO4)sc2nc1C
6. CC12CCCC(CC(=O)c3[nH]c4ccccc4c31)C2 (centres undefined)
7. CC(C)(C)NCCC(O)c1cc2c(Cl)cc(Cl)cc2c2cc(C(F)(F)F)ccc12 (centres undefined)
8. CN(C)c1oc(C2OC2c2ccccc2)nc1C#N (centres undefined)

Marked response:
99.3% (inactive)
94.9% (inactive)
102% (inactive)
94.8% (inactive)
99.4% (inactive)
24.9% (inactive)
-94.2% (active)
94% (inactive)
